Value source: PubChem BioAssay (NCI)

tested on: DU-145 prostate; assay: NCI tumour cell line growth inhibition, 48 h; in the data active = GI50 below about 0.43 µM; inactive = the rest
Valid outcomes are listed here; reply with one: active, inactive

Per the records of this test, what outcome belongs to O=c1c2c([nH]c3ccccc13)CCCC2 ?
inactive

----------
tested on: MCF7 breast; test: NCI tumour cell line growth inhibition, 48 h
assay-readout: TGI

>>> recorded_measurement("O=C1C=CC(=O)c2c(O)c(N3CCN(c4ccccn4)CC3)c(Cl)c(O)c21")
"3.01 µM"
>>> recorded_measurement("Cc1cc(-n2c(/C=C/c3ccc(Cl)cc3)nc3cc(Cl)ccc3c2=O)on1")
"> 50 µM"
>>> recorded_measurement("O=C1c2ccccc2C(=Nc2ccc3ccccc3c2)C1(C1=C(c2ccccc2)C(=Nc2ccc3ccccc3c2)c2ccccc21)c1ccccc1 (centres undefined)")
"> 65.6 µM"
>>> recorded_measurement("Fc1c(F)c(F)c2c(c1F)CSc1nc3ccccc3n1-2")
"> 100 µM"
>>> recorded_measurement("Cc1nn(C(=O)c2ccccc2O)c2c1C(c1ccccc1O)SC(N)=N2 (centres undefined)")
"> 10 µM"
>>> recorded_measurement("COc1cc(Nc2nc3ccccc3n3cccc23)cc(OC)c1OC")
"> 100 µM"

// lookup TGI for c1cc(-c2ccc(-c3ccc(-c4ccc(-c5cccc6nsnc56)[nH]4)c4nsnc34)[nH]2)c2nsnc2c1
> 100 µM

Another: NS(=O)(=O)c1ccc(N=Cc2c(O)[nH]c3ccc4ncsc4c23)cc1
> 24 µM

Another: CCC(O)CC1OC2(CCC1C)CC1OC(=O)/C=C\C(C)(O)C(O)C(C)C(O)C(OC3CC(OC)C(O)C(C)O3)C(O)C(C)(O)CCC/C=C/C3CC(C)COC3(O)CC(O2)C1C (centres undefined)
30.2 µM
